B1: Osa-1-4 twister ribozyme (parent)
chain: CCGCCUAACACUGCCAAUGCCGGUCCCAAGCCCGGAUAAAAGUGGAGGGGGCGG

Variants of: B1
test_description: self-cleavage, relative activity (ratio to wild type); higher = more cleavage; co-transcriptional
outcome_measure: self-cleavage

INSERT INTO results (variant_key, outcome_measure, observed_value) VALUES
  ('G30A G54A', 'self-cleavage', 0.05),
  ('C20G C52U', 'self-cleavage', 0.17),
  ('C14A G23A', 'self-cleavage', 0.05),
  ('A41C U37G', 'self-cleavage', 1.02);
